// data source = the supplement of paper PMC10065799

Test system: c-Src;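 further: 11-residue human phosphosite peptides and single-mutation variants displayed on the E. coli surface, counted by deep sequencing, each peptide's frequency after selection divided by its frequency in the unselected input library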;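 further: frequency after pTyr selection over input frequency; kinase dosed for 20-30% of maximal phosphorylation in three min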
RUN_DESCRIPTION: phosphorylation enrichment, bacterial display (enrichment ratio); higher = better substrate or ligand; peptides without Tyr show the background
Class definitions on phosphorylation enrichment: bottom range (below 0.5), center range (0.5 to below 0.6), top range (0.6 or more)

Some entries whose results are on file:
[
  {
    "SEQUENCE_CHAIN": "LVSCAYQMARG [FGFR1_Y605_V607M]",
    "LABEL": "top range"
  },
  {
    "SEQUENCE_CHAIN": "LTEEKYELKEG [TREM1_Y29]",
    "LABEL": "center range"
  },
  {
    "SEQUENCE_CHAIN": "ALVDTYCRHNF [HLA-DRB1_Y107_A103L_YF]",
    "LABEL": "center range"
  },
  {
    "SEQUENCE_CHAIN": "MHDSNSVSKGS [PDGFRA_Y849_Y849S]",
    "LABEL": "bottom range"
  },
  {
    "SEQUENCE_CHAIN": "TSPALYRLDLD [TRIL_Y352_A347T]",
    "LABEL": "top range"
  }
]

Each sequence maps to one class by phosphorylation enrichment. Which class for RPFRPYIIRGM [LRP5_Y1531_YF] ?
top range

Each sequence maps to one class by phosphorylation enrichment. Which class for GVRLFYRVMES [RB1_Y454_YF] ?
bottom range
